- Test system: LRRK2;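 also: KINOMEscan kinase panel screen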
- experimental-setup: concentration: 1 μM, replicates: in singlicate; n = 1
Consider the following molecules; for each one, report its %Inh.
Answers are plain numbers, in %.

For each of the molecules below, state %Inh.
1. COc1cc(Nc2nccc(N3CCC(NC(=O)C(C)c4ccc(Cl)cc4)C3)n2)cc(OC)c1OC (stereo not shown)
2. Nc1ncnc2c1ncn2-c1ccc(Cl)cc1
3. O=c1cc(N2CCOCC2)nc2n(Cc3ccc(F)c(Cl)c3)ccn12
4. COc1ccc(CNC(=O)NC2CCN(c3ccnc(Nc4ccc(F)cc4)n3)C2)cc1 (stereo not shown)

0
0
0
23

For each of the molecules below, state %Inh.
1. O=C(NCCNc1ccnc(Nc2ccc(F)cc2)n1)Nc1ccc2c(c1)OCO2
2. COC(=O)c1c(-c2ccccc2)c2cc(Br)ccc2c(=O)n1Cc1ccc(NC(=O)CCC(=O)O)cc1
3. CCC(=O)c1c(-c2ccccc2)c2cc(Cl)ccc2c(=O)n1Cc1cc(S(C)(=O)=O)n(CCC(C)(C)O)n1

1. 0
2. 4
3. 6

For each of the molecules below, state %Inh.
1. Cc1ccc(-c2ccc3c(ccc4sc5c(c43)NC[C@@H](C)N=C5N(C)C)n2)cn1
2. CCC(=O)c1c(-c2ccccc2)c2cc(Cl)ccc2c(=O)n1Cc1cc(S(C)(=O)=O)n(CC(F)F)n1
3. Cc1nnc(-c2ccc(C)c(-c3ccc(C(=O)O)cc3)c2)o1
4. COc1cc2ncn(-c3cc(OCc4ccncc4Br)c(C(N)=O)s3)c2cc1OC
5. COc1cc(Nc2nccc(N3CCC(NC(=O)C4COc5ccccc5O4)C3)n2)cc(OC)c1OC (stereo not shown)
6. O=C(Nc1n[nH]c2cc(-c3ccccc3F)ccc12)C1CC1
7. Cc1ccccc1COc1cc(-n2cnc3cc(Cl)ccc32)sc1C(N)=O

0
0
46
0
0
0
82

For each of the molecules below, state %Inh.
1. Nc1ncnc2c1ncn2-c1cccc(F)c1
2. CN(C)c1cc(-c2ccc3c(N)n[nH]c3c2)nc(N)n1
3. CCS(=O)(=O)c1ccc(OC)c(Nc2ncc(-c3ccc(F)cc3)o2)c1.Cl
4. CN1C(=O)C(Nc2ccccc2)=C(c2ccccc2)C1=O
5. CCCNC(=O)Nc1ccc(Oc2ncnc3ccn(C)c23)cc1

1. 31
2. 0
3. 0
4. 0
5. 0
